- Tested on: HCV 1b genotype
- Experiment description: HCV Replicon assay (HCV-neo replicon cells, wild-type)
- Assay type: cell-based
- Condition details: HCV 1b genotype replicon; read-out: 1b EC50 (in μM or range)
This listing pairs compounds with measured EC50.
Readout kind: EC50 (nM)

Compound | Readout kind | Recorded measurement
COC(=O)N[C@@H](C(=O)N1CCC[C@H]1C(=O)Nc1ccc(C#Cc2ccc(NC(=O)[C@@H]3CCCN3C(=O)[C@H](NC(=O)OC)c3ccccc3)cc2)cc1)c1ccccc1 | EC50 | 0.013
CN1C[C@@H]2C[C@H]1CN2C(C(=O)N1CCC[C@H]1C(=O)Nc1ccc(C#Cc2ccc(NC(=O)[C@@H]3CCCN3C(=O)C(c3ccccc3)N3C[C@@H]4C[C@H]3CN4C)cc2)cc1)c1ccccc1 (stereo partly drawn) [VN18] | EC50 | 130
CN1C[C@@H]2C[C@H]1CN2C(C(=O)N1CCC[C@H]1C(=O)Nc1ccc(C#Cc2ccc(NC(=O)[C@@H]3CCCN3C(=O)C(c3ccccc3)N3C[C@@H]4C[C@H]3CN4C)cc2)cc1)c1ccccc1 (stereo partly drawn) [VN19] | EC50 | 5.2
